# assay_target: CFTR (cAMP-stimulated short-circuit current) in mouse ileum (Mus musculus)
# Sequence (P26361 whole entry): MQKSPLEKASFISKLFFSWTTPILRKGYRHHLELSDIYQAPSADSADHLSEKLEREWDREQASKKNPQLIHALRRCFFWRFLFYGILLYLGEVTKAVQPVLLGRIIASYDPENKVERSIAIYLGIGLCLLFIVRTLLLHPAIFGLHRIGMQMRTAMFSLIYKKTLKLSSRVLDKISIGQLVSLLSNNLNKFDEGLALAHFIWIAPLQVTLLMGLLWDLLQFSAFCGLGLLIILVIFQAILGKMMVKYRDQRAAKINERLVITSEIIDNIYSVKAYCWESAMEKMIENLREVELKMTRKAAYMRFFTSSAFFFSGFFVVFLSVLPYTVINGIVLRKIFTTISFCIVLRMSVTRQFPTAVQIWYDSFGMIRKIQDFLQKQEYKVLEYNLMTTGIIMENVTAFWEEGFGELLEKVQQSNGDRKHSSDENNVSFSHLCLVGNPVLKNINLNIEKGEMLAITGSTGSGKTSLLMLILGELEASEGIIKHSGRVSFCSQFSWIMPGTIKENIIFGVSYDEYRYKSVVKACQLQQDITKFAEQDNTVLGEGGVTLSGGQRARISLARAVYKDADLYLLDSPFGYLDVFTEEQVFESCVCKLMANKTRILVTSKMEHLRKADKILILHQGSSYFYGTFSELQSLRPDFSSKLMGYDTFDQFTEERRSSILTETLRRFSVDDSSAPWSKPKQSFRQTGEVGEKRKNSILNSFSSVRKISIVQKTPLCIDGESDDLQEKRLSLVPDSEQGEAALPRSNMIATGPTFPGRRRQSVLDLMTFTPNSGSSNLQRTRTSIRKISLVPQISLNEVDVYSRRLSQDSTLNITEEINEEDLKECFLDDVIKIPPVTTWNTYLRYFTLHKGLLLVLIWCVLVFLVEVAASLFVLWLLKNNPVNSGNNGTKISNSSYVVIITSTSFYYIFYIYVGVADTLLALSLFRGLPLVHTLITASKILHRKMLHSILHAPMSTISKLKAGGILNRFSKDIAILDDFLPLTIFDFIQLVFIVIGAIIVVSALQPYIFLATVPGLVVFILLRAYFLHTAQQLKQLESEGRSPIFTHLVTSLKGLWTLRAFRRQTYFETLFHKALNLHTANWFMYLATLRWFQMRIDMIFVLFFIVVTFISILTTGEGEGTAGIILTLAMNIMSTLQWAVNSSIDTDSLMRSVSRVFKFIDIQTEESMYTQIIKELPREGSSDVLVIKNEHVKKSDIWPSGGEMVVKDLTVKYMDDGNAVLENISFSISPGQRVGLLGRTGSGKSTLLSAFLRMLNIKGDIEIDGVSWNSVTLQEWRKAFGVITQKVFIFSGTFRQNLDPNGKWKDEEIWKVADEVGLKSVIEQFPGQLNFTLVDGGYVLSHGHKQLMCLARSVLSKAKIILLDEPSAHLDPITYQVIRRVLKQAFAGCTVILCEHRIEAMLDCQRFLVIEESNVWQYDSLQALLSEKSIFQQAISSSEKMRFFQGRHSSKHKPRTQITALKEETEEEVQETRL
# assay_protocol: Short-circuit current in intact mouse ileum
# test_settings: CPT-cAMP after amiloride, read-out: Ki for inhibition of cAMP-stimulated short-circuit current
property_name: Ki

Request: So what does the record say about Ki for O=C(CNc1ccc2ccccc2c1)NN=Cc1cc(Br)c(O)c(Br)c1O ?
Response: ~5 µM

----------
# assay_target: CFTR (Homo sapiens)
# Sequence (P13569 whole entry): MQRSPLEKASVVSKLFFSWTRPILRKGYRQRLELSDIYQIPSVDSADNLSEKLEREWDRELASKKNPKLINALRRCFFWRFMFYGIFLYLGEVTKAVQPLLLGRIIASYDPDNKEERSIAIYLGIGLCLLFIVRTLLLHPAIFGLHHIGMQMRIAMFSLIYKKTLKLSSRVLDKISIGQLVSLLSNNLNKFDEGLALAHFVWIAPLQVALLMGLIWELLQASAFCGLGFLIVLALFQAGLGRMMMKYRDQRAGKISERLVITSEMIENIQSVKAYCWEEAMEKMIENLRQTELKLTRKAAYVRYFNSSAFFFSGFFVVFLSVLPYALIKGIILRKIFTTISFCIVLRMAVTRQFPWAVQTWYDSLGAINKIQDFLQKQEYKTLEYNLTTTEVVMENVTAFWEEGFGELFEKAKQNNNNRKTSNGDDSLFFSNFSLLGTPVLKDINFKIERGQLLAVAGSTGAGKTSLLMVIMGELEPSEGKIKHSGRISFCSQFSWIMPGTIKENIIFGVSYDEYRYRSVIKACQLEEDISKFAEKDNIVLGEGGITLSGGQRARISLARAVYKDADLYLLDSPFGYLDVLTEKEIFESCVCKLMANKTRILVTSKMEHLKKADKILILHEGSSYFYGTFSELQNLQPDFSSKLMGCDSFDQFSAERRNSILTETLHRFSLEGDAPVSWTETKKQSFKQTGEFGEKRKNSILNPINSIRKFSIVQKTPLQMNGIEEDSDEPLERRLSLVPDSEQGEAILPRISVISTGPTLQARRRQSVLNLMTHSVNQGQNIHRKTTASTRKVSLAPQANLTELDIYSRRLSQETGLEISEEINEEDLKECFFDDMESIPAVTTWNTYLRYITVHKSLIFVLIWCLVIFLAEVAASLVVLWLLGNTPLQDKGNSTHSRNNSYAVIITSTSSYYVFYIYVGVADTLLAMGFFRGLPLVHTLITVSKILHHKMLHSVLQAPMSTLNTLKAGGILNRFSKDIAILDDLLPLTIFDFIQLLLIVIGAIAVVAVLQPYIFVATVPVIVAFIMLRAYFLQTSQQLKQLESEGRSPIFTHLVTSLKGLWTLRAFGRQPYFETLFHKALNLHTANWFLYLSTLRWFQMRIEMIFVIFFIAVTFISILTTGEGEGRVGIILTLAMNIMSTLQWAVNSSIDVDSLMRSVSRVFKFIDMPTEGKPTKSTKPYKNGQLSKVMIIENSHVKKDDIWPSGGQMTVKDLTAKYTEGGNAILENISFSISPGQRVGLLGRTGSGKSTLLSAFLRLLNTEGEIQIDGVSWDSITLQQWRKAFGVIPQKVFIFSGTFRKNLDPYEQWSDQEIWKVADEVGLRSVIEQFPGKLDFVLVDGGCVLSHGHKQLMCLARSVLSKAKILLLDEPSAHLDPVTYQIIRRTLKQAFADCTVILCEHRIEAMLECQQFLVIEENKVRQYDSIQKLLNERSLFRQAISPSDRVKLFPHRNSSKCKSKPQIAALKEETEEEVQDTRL
# assay_protocol: Short-circuit current (apical Cl− current) analysis on permeabilized CFTR-expressing FRT cells
# test_settings: Table 1, Group I; 50 μM
property_name: % inhibition at 50 μM (%)
Numeric only. Scale: %

Request: What does the record list as % inhibition at 50 μM for CC(Nc1ccc2ccccc2c1)C(=O)NN=Cc1cc(Br)c(O)c(Br)c1O (stereo not shown) ?
Response: 91

Request: Which measured % inhibition at 50 μM value corresponds to O=C(CNc1ccc2ccccc2c1)NN=Cc1cc(Br)c(O)c(Br)c1O ?
Response: 95

Request: // % inhibition at 50 μM lookup, key: O=C(CNc1ccc2ccccc2c1)N/N=C/c1cc(Br)c(O)c(Br)c1
Response: 98

Request: Record request: % inhibition at 50 μM value, item CC(=NNC(=O)CNc1ccc2ccccc2c1)c1cc(Br)c(O)c(Br)c1O
Response: 81

----------
# assay_target: CFTR (Homo sapiens)
# assay_protocol: Short-circuit current (apical Cl− current) analysis on permeabilized CFTR-expressing FRT cells
# test_settings: Table 1, Group I; concentration giving 50% inhibition of CFTR Cl− conductance
property_name: pKi
In textbook form, pKi equals minus log to base ten of the concentration in mol/L.

Request: For O=C(CNc1ccc2ccccc2c1)NN=Cc1cc(Br)c(O)c(Br)c1O [GlyH-101] , what is its reported pKi?
Response: 5.30

Request: Which pKi value is on record for CC(Nc1ccc2ccccc2c1)C(=O)NN=Cc1cc(Br)c(O)c(Br)c1O (stereo not shown) [GlyH-106] ?
Response: 5.22

Request: For the molecule CC(=NNC(=O)CNc1ccc2ccccc2c1)c1cc(Br)c(O)c(Br)c1O [GlyH-108] , what pKi is on record?
Response: 5.00

Request: Entry O=C(CNc1ccc2ccccc2c1)N/N=C/c1cc(Br)c(O)c(Br)c1 [GlyH-102] has what pKi?
Response: 5.30
